meta.source: PubChem BioAssay (NCI)

Consider the following compounds; for each one, report its growth inhibition.
# ASSAY_NAME: NCI Yeast Anticancer Drug Screen. Data for the mlh1 rad18 strain (AID 175)
# PROTOCOL_CONDITIONS: S. cerevisiae mlh1 rad18 strain growth inhibition; at 50.0 µM; stronger effect = higher value
About 79,000 compounds went through this panel and 15% of them were active in at least one assay; those are over-represented in the sample as a whole. Where a SMILES comes first, the peptide text is derived from it. [ ]: non-standard residue; d: D form. ξ: configuration not given here. ξF = NC(Cc1ccccc1)C(=O)O
One number for each entry, in %.

# count of solved cases: 5
[
  {
    "COMPOUND": "CCCCCCCCCCCCCCCC(C)(C)O",
    "ENDPOINT_LABEL": "growth inhibition",
    "MEASURED_RESULT": 5.1
  },
  {
    "COMPOUND": "N#CC(=S)Nc1ccc(F)cc1",
    "ENDPOINT_LABEL": "growth inhibition",
    "MEASURED_RESULT": -5.8
  },
  {
    "COMPOUND": "COc1cc(/C=N/n2cnnc2)cc(OC)c1OC",
    "ENDPOINT_LABEL": "growth inhibition",
    "MEASURED_RESULT": -13.7
  },
  {
    "COMPOUND": "S=c1[nH]nc(NC2CCCCC2)s1",
    "ENDPOINT_LABEL": "growth inhibition",
    "MEASURED_RESULT": -7.1
  },
  {
    "COMPOUND": "Oc1ccccc1C=Nc1ccccc1C(F)(F)F",
    "ENDPOINT_LABEL": "growth inhibition",
    "MEASURED_RESULT": 25.2
  }
]

Go through the list and state growth inhibition for each entry.
1. C[N+](C)(C)CN1C(=O)c2ccccc2C1=O
2. NC(Cc1ccccc1)C(=O)NCC(=O)NCC(=O)O (stereo not drawn) (H-[ξF]-Gly-Gly-OH)

Data returned:
1: -4.8; 2: 4.55

Go through the list and state growth inhibition for each entry.
1. Oc1cc(Br)ccc1C=Nc1ccc(N2CCCCC2)cc1
2. CCCCCCC(=O)C(CCCC)(C(=O)OCC)C(=O)OCC
3. COc1cc(/C=N\NC(=O)OC(C)(C)C)cc(OC)c1OC
4. Nc1ccccc1SC1CC(=O)N(c2cccc3ccccc23)C1=O (stereo not drawn)

Data returned:
17.8
7.35
10.5
-12.8

Go through the list and state growth inhibition for each entry.
1. CCCCCCCCCCCC(O)CCCCC (stereo not drawn)
2. Cc1ccc(NCN2C(=O)c3ccccc3C2=O)cc1Cl

Data returned:
[-38.9, 28.3]

###

# ASSAY_NAME: NCI Yeast Anticancer Drug Screen. Data for the cln2 rad14 strain (AID 165);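 also: 0% = growth equal to vehicle treated cultures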
# PROTOCOL_CONDITIONS: S. cerevisiae cln2 rad14 strain, at 50.0 µM
The panel holds about 79,000 compounds, 15% with a hit somewhere; the sample as a whole holds those more often. Calls of active or inactive are those of the source. Cut-off read from the data, not from the text of the source: active = growth inhibition above about 70%; inactive = the rest.
# valid calls are yes (1) for active, no (0) for inactive; nothing else

[
  {
    "COMPOUND": "CC(=O)C1=C(C)N2C(=NC3=C(CCc4ccccc43)C2c2cccc(Br)c2)S1 (configuration not stated)",
    "LABEL_CLASS": "no (0)"
  },
  {
    "COMPOUND": "Cc1ccc(F)cc1NC(=O)O/N=C(\\Cl)C(C)C",
    "LABEL_CLASS": "no (0)"
  },
  {
    "COMPOUND": "COc1cc(Oc2c(C)c(Cl)c(OC)c(Cl)c2OC)c2c(c1Cl)COC2=O",
    "LABEL_CLASS": "no (0)"
  },
  {
    "COMPOUND": "C/C(O)=C/c1nc2sc(C)c(C)c2c(=O)s1",
    "LABEL_CLASS": "no (0)"
  }
]

Data request: Given COc1c(O)ccc(C2=Cc3ccc(O)cc3OC2)c1OC , state the outcome it received in this test.
Data returned: yes (1)

Data request: Given COc1ccc2nc(N/N=C/c3ccc(C)s3)cc(C)c2c1 , state the outcome it received in this test.
Data returned: no (0)

###

# ASSAY_NAME: NCI Yeast Anticancer Drug Screen. Data for the mec2-1 strain (AID 157)
# PROTOCOL_CONDITIONS: S. cerevisiae mec2-1 strain, at 50.0 µM, stronger effect = higher value
About 79,000 compounds went through this panel and 15% of them were active in at least one assay; those are over-represented in the sample as a whole.
Consider the following compounds; for each one, report its growth inhibition.
Numbers only, in %.

Go through the list and state growth inhibition for each entry.
1. Cc1ccc(NC(=S)N(C)C)cc1C
2. N#[N+]c1c(O)cc(S(=O)(=O)O)c2ccccc12
3. CCN(CC)C(C(=O)Nc1ccccc1)C(=O)Nc1ccccc1
4. Cc1ccc(OCC2OC(n3cnc4nc(Cl)nc(Cl)c43)CC2Oc2ccc(C)cc2)cc1 (centres undefined)
5. CCC/C(Cl)=N/OC(=O)Nc1cccc(F)c1
6. O=C1c2ccccc2C(=O)N1CNc1ccc(Cl)cn1
7. CCOc1ccc(/C=C(/C#N)C(N)=O)cc1
8. O=C1NC(N/N=C\C(O)C(O)C(O)C(O)CO)=N/C1=C\c1ccc(Cl)cc1 (centres undefined)

Data returned:
[-26.3, -8.45, 2.8, 12.4, -6.9, -43.9, -8.1, 30.6]

Go through the list and state growth inhibition for each entry.
1. CC(C)Oc1ccc(C(=O)NS(=O)(=O)c2ccc(N)cc2)cc1
2. COc1ccc2nc(N/N=C/c3ccc(C)s3)cc(C)c2c1
3. Cc1ccc(OCC2OC(n3cnc4c(Cl)nc(Cl)nc43)CC2Oc2ccc(C)cc2)cc1 (centres undefined)
4. CCCOC(=O)C(=O)C(C#N)c1ccccc1 (centres undefined)
5. O=c1oc(-c2ccccc2)nc2cc(Cl)ccc12

Data returned:
1: -32.5; 2: -1.75; 3: -21.6; 4: -0.35; 5: 0.25

Go through the list and state growth inhibition for each entry.
1. Oc1ccccc1C=NCC1CCC(CN=Cc2ccccc2O)CC1 (centres undefined)
2. CC1CC2(OC2C)C(=O)OC2CCN(C)C/C=C(/COC(=O)C1(C)O)C2=O (centres undefined)
3. Cc1ccc(F)cc1NC(=O)O/N=C(\Cl)C(C)C
4. CCOC(=O)C(C#N)N=Nc1ccccc1 (centres undefined)
5. COC(=O)C(Cc1nc2ccccc2[nH]c1=O)C(=O)C(=O)Nc1cc(C(F)(F)F)ccc1Cl (centres undefined)
6. COC(=O)C(=O)C(C(=O)C(=O)Nc1nc2ccc(C)cc2s1)c1nc2ccc([N+](=O)[O-])cc2[nH]c1=O (centres undefined)

Data returned:
[13.1, 7.05, -31.9, -7, -18.5, 15.4]

Go through the list and state growth inhibition for each entry.
1. S=C(S)NC1CCCCCCCCCCC1
2. CCCCCCCC/C=C\CCCCCCCCOC(N)=O
3. CN1C(=S)c2ccccc2S1(=O)=O
4. CC(C)/C(Cl)=N/OC(=O)Nc1cccc(C(F)(F)F)c1
5. OCNC(=S)c1c(Cl)cccc1Cl

Data returned:
1: 23.8; 2: -26.8; 3: -14.4; 4: 38.3; 5: -18.1

###

# ASSAY_NAME: NCI Yeast Anticancer Drug Screen. Data for the sgs1 mgt1 strain (AID 161);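 also: 0% = growth of cultures given vehicle only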
# PROTOCOL_CONDITIONS: S. cerevisiae sgs1 mgt1 strain, at 50.0 µM
# Procedure: Growth inhibition of yeast strains with defined genetic alterations is measured as a screen for potential anti-cancer activity. Selected strains with alterations in DNA damage repair or cell cycle control were exposed to compounds and growth inhibition was measured relative to vehicle treated controls. The strain used in this assay is sgs1 mgt1
About 79,000 compounds went through this panel and 15% of them were active in at least one assay; those are over-represented in the sample as a whole. The source made the active and inactive calls. Cut-off read from the data, not from the text of the source: active = growth inhibition above about 70%; inactive = the rest.
# valid calls are TRUE for active, FALSE for inactive; nothing else

Reference set, count: 5
[
  {
    "COMPOUND": "CCOc1cc2c(cc1O)/C(=N/NS(=O)(=O)c1ccc(C)cc1)C[C@@H]1[C@@H]2CC[C@]2(C)[C@@H](O)CC[C@@H]12",
    "LABEL_CLASS": "FALSE"
  },
  {
    "COMPOUND": "C=C(CCC(C(=O)O)C1CCC2(C)C3=C(CCC12C)C1(C)CCC(O)C(C)(C)C1CC3)C(C)C (stereo not given)",
    "LABEL_CLASS": "FALSE"
  },
  {
    "COMPOUND": "CCCCCC(O)(CCCCC)CCCCCCCCC1=C(O)c2ccccc2C(=O)C1=O",
    "LABEL_CLASS": "FALSE"
  },
  {
    "COMPOUND": "Cc1ccc(NC2=N/C(=C/c3ccccc3)C(Cl)=N2)cc1",
    "LABEL_CLASS": "FALSE"
  },
  {
    "COMPOUND": "CC(C)/C(Cl)=N/OC(=O)Nc1cccc(C(F)(F)F)c1",
    "LABEL_CLASS": "TRUE"
  }
]

Data request: Given CCC1OC2(C)CC(C#N)(C#N)C1(C#N)C(=N)O2 (stereo not given) , state the outcome it received in this test.
Data returned: FALSE

Data request: Given CO/C(N)=C(\C#N)N=Cc1ccc2ccccc2c1 , state the outcome it received in this test.
Data returned: FALSE

Data request: Given NC1N=C(c2ccc(Cl)cc2)C2=C(N1)c1ccccc1CC2 (stereo not given) , state the outcome it received in this test.
Data returned: FALSE

Data request: Given CC(C)=CCc1c(OC(=O)c2c(C)cc(O)cc2O)cc(CO)c(CO)c1O , state the outcome it received in this test.
Data returned: FALSE

Data request: Given C=C(C)C(=O)OC1CC2(C)OC(=CC2=O)C(C)CC2OC(=O)C(=C)C12 (stereo not given) , state the outcome it received in this test.
Data returned: FALSE
